- Test system: 377384-186-R-J1-PDC complex spheroid viability
- assay-explanation: Anticancer human tumor 377384-186-R-J1-PDC patient-derived pancreatic carcinoma cell line growth inhibition [CLK]
- condition-label: second compound 0.1 µM; first compound 0.316 µM; stronger effect = lower value
recorded-endpoint: viability, T/C (%)
The figure you give is taken to be in %; do not add the unit.

Looking up COc1cccc2c1C(=O)c1c(O)c3c(c(O)c1C2=O)CC(O)(C(=O)CO)CC3OC1CC(N)C(O)C(C)O1 (stereo unspecified) + CNC(=O)c1ccc(Nc2nc(OC3CCCC3)c3c(-c4ccc5nc(C)oc5c4)c[nH]c3n2)c(OC)c1 , I see its viability, T/C listed as 1.38

Looking up COc1cccc2c1C(=O)c1c(O)c3c(c(O)c1C2=O)CC(O)(C(=O)CO)CC3OC1CC(N)C(O)C(C)O1 (stereo unspecified) + CN1CCN(c2cc(C(=O)Nc3cc4cc(-c5cnn(C)c5)ccc4cn3)ccn2)CC1 , I see its viability, T/C listed as 1.2

Looking up C=CC(=O)N1CCN(c2nc(=O)n(-c3c(C)ccnc3C(C)C)c3nc(-c4c(O)cccc4F)c(F)cc23)C(C)C1 (stereo unspecified) + CN1CCN(c2cc(C(=O)Nc3cc4cc(-c5cnn(C)c5)ccc4cn3)ccn2)CC1 , I see its viability, T/C listed as 110

Looking up C=C(F)C(=O)N1CCN(c2nc(OCC3CCCN3C)nc3c2CCN(c2cccc4cccc(Cl)c24)C3)CC1CC#N (stereo unspecified) + CNC(=O)c1ccc(Nc2nc(OC3CCCC3)c3c(-c4ccc5nc(C)oc5c4)c[nH]c3n2)c(OC)c1 , I see its viability, T/C listed as 45.7

Looking up C=C(F)C(=O)N1CCN(c2nc(OCC3CCCN3C)nc3c2CCN(c2cccc4cccc(Cl)c24)C3)CC1CC#N (stereo unspecified) + CN1CCN(c2cc(C(=O)Nc3cc4cc(-c5cnn(C)c5)ccc4cn3)ccn2)CC1 , I see its viability, T/C listed as 81.4

----------
- Tested on: 377384-186-R-J1-PDC complex spheroid viability
- assay-explanation: Anticancer human tumor 377384-186-R-J1-PDC cell line growth inhibition [CLK]; active = viability on the fitted dose curve at most 10% of control; inactive = the rest;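 further: luminescence signal used as a stand-in for viable cells; spheroids exposed to agents for 7 days before reading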
- condition-label: second compound 0.316 µM; first compound 1 µM
Allowed answers: y = active, n = inactive

[
  {
    "molecule": "C#Cc1c(F)ccc2cc(O)cc(-c3ncc4c(N5CC6CCC(C5)N6)nc(OCC56CCCN5CC(F)C6)nc4c3F)c12 (configuration not stated) + CNC(=O)c1ccc(Nc2nc(OC3CCCC3)c3c(-c4ccc5nc(C)oc5c4)c[nH]c3n2)c(OC)c1",
    "label-class": "y"
  }
]

Kindly review the next molecule as well.
### Prompt I'd appreciate the recorded outcome for CC1(C)CCC(CN2CCN(c3ccc(C(=O)NS(=O)(=O)c4ccc(NCC5CCOCC5)c([N+](=O)[O-])c4)c(Oc4cnc5[nH]ccc5c4)c3)CC2)=C(c2ccc(Cl)cc2)C1 + CN1CCN(c2cc(C(=O)Nc3cc4cc(-c5cnn(C)c5)ccc4cn3)ccn2)CC1 from this test.
### Response n

----------
- Tested on: 377384-186-R-J1-PDC complex spheroid viability
- assay-explanation: Anticancer human tumor 377384-186-R-J1-PDC cell line growth inhibition [CLK]; active = viability on the fitted dose curve at most 10% of control; inactive = the rest;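 further: luminescence signal used as a stand-in for viable cells; spheroids exposed to agents for 7 days before reading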
- condition-label: second compound 10 µM; first compound 0.00316 µM
Allowed answers: active, inactive

### Prompt I'd appreciate the recorded outcome for Cn1ncnc1[C@H]1c2n[nH]c(=O)c3cc(F)cc(c23)N[C@@H]1c1ccc(F)cc1 + CN1CCN(c2cc(C(=O)Nc3cc4cc(-c5cnn(C)c5)ccc4cn3)ccn2)CC1 from this test.
### Response active

### Prompt I'd appreciate the recorded outcome for CCc1c2c(nc3ccc(O)cc13)-c1cc3c(c(=O)n1C2)COC(=O)[C@]3(O)CC + CN1CCN(c2cc(C(=O)Nc3cc4cc(-c5cnn(C)c5)ccc4cn3)ccn2)CC1 from this test.
### Response active

### Prompt I'd appreciate the recorded outcome for COc1c(OCCCN2CCOCC2)ccc2c3n(c(=NC(=O)c4cnc(N)nc4)nc12)CCN3 + CNC(=O)c1ccc(Nc2nc(OC3CCCC3)c3c(-c4ccc5nc(C)oc5c4)c[nH]c3n2)c(OC)c1 from this test.
### Response inactive

### Prompt I'd appreciate the recorded outcome for CCN1CCN(Cc2ccc(Nc3ncc(F)c(-c4cc(F)c5nc(C)n(C(C)C)c5c4)n3)nc2)CC1 + CNC(=O)c1ccc(Nc2nc(OC3CCCC3)c3c(-c4ccc5nc(C)oc5c4)c[nH]c3n2)c(OC)c1 from this test.
### Response inactive

### Prompt I'd appreciate the recorded outcome for CCN1CCN(Cc2ccc(Nc3ncc(F)c(-c4cc(F)c5nc(C)n(C(C)C)c5c4)n3)nc2)CC1 + CN1CCN(c2cc(C(=O)Nc3cc4cc(-c5cnn(C)c5)ccc4cn3)ccn2)CC1 from this test.
### Response active

### Prompt I'd appreciate the recorded outcome for COc1c(OCCCN2CCOCC2)ccc2c3n(c(=NC(=O)c4cnc(N)nc4)nc12)CCN3 + CN1CCN(c2cc(C(=O)Nc3cc4cc(-c5cnn(C)c5)ccc4cn3)ccn2)CC1 from this test.
### Response active

### Prompt I'd appreciate the recorded outcome for Cn1ncnc1[C@H]1c2n[nH]c(=O)c3cc(F)cc(c23)N[C@@H]1c1ccc(F)cc1 + CNC(=O)c1ccc(Nc2nc(OC3CCCC3)c3c(-c4ccc5nc(C)oc5c4)c[nH]c3n2)c(OC)c1 from this test.
### Response inactive

### Prompt I'd appreciate the recorded outcome for CCc1c2c(nc3ccc(O)cc13)-c1cc3c(c(=O)n1C2)COC(=O)[C@]3(O)CC + CNC(=O)c1ccc(Nc2nc(OC3CCCC3)c3c(-c4ccc5nc(C)oc5c4)c[nH]c3n2)c(OC)c1 from this test.
### Response inactive

----------
- System: 377384-186-R-J1-PDC complex spheroid viability
- assay-explanation: Anticancer human tumor 377384-186-R-J1-PDC cell line growth inhibition [CLK]; active means viability on the fitted dose curve at most 10% of control; inactive means the rest;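 further: luminescence signal used as a stand-in for viable cells; spheroids exposed to agents for 7 days before reading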
- condition-label: second compound 3.16 µM; first compound 1 µM
- Excerpt: A high-throughput screen of multi-cell type tumor spheroids was designed to identify active combinations of […] and targeted small molecules. Complex spheroids include a stromal component modeled by human endothelial cells (HUVEC) and fibroblasts modeled by human mesenchymal stem cells (MSCs). […] Compounds. […] If the clinical Cmax for an agent had not been determined, the highest concentration tested was 10 microM. […]
Allowed answers: True = active, False = inactive

[
  {
    "compound": "C=CC(=O)N1CCN(c2nc(=O)n(-c3c(C)ccnc3C(C)C)c3nc(-c4c(O)cccc4F)c(F)cc23)C(C)C1 (stereo not given) + CN1CCN(c2cc(C(=O)Nc3cc4cc(-c5cnn(C)c5)ccc4cn3)ccn2)CC1",
    "label-class": "True"
  },
  {
    "compound": "C=CC(=O)N1CCN(c2nc(=O)n(-c3c(C)ccnc3C(C)C)c3nc(-c4c(O)cccc4F)c(F)cc23)C(C)C1 (stereo not given) + CNC(=O)c1ccc(Nc2nc(OC3CCCC3)c3c(-c4ccc5nc(C)oc5c4)c[nH]c3n2)c(OC)c1",
    "label-class": "False"
  },
  {
    "compound": "COc1cccc2c1C(=O)c1c(O)c3c(c(O)c1C2=O)CC(O)(C(=O)CO)CC3OC1CC(N)C(O)C(C)O1 (stereo not given) + CNC(=O)c1ccc(Nc2nc(OC3CCCC3)c3c(-c4ccc5nc(C)oc5c4)c[nH]c3n2)c(OC)c1",
    "label-class": "True"
  },
  {
    "compound": "Nc1ccn(C2OC(CO)C(O)C2(F)F)c(=O)n1 (stereo not given) + CNC(=O)c1ccc(Nc2nc(OC3CCCC3)c3c(-c4ccc5nc(C)oc5c4)c[nH]c3n2)c(OC)c1",
    "label-class": "True"
  },
  {
    "compound": "O=C(c1cc(Cc2n[nH]c(=O)c3ccccc23)ccc1F)N1CCN(C(=O)C2CC2)CC1 + CNC(=O)c1ccc(Nc2nc(OC3CCCC3)c3c(-c4ccc5nc(C)oc5c4)c[nH]c3n2)c(OC)c1",
    "label-class": "False"
  }
]

### Prompt I'd appreciate the recorded outcome for C#Cc1c(F)ccc2cc(O)cc(-c3ncc4c(N5CC6CCC(C5)N6)nc(OCC56CCCN5CC(F)C6)nc4c3F)c12 (stereo not given) + CN1CCN(c2cc(C(=O)Nc3cc4cc(-c5cnn(C)c5)ccc4cn3)ccn2)CC1 from this test.
### Response True

### Prompt I'd appreciate the recorded outcome for CC(=O)O[C@H]1C(=O)[C@@]2(C)[C@H]([C@H](OC(=O)c3ccccc3)[C@]3(O)C[C@H](OC(=O)[C@H](O)[C@@H](NC(=O)c4ccccc4)c4ccccc4)C(C)=C1C3(C)C)[C@]1(OC(C)=O)CO[C@@H]1C[C@@H]2O + CN1CCN(c2cc(C(=O)Nc3cc4cc(-c5cnn(C)c5)ccc4cn3)ccn2)CC1 from this test.
### Response True

### Prompt I'd appreciate the recorded outcome for O=c1[nH]cc(F)c(=O)[nH]1 + CN1CCN(c2cc(C(=O)Nc3cc4cc(-c5cnn(C)c5)ccc4cn3)ccn2)CC1 from this test.
### Response True

### Prompt I'd appreciate the recorded outcome for C=C(F)C(=O)N1CCN(c2nc(OCC3CCCN3C)nc3c2CCN(c2cccc4cccc(Cl)c24)C3)CC1CC#N (stereo not given) + CN1CCN(c2cc(C(=O)Nc3cc4cc(-c5cnn(C)c5)ccc4cn3)ccn2)CC1 from this test.
### Response True

### Prompt I'd appreciate the recorded outcome for O=c1[nH]cc(F)c(=O)[nH]1 + CNC(=O)c1ccc(Nc2nc(OC3CCCC3)c3c(-c4ccc5nc(C)oc5c4)c[nH]c3n2)c(OC)c1 from this test.
### Response False

### Prompt I'd appreciate the recorded outcome for CC1COCCN1c1cc(C2(S(C)(=N)=O)CC2)nc(-c2ccnc3[nH]ccc23)n1 (stereo not given) + CN1CCN(c2cc(C(=O)Nc3cc4cc(-c5cnn(C)c5)ccc4cn3)ccn2)CC1 from this test.
### Response True
